test system: A498; experiment: NCI tumour cell line growth inhibition, 48 h
Active and inactive are the calls of the source. No stated cut-off is given here; in the data, active = GI50 up to about 1.1 µM and inactive = higher.
Property label: GI50

Here is how some compounds turned out for GI50.
- Compound: "Cc1nc2c(O)cc3c4c(n(Cc5ccccc5)c3c2nc1C)C(=O)CCC4"
  GI50: "34 µM (inactive)"
- Compound: "O=C1OC(c2cccc(C(F)(F)F)c2)c2ccc3ccccc3c21 (centres undefined)"
  GI50: "> 10 µM (inactive)"
- Compound: "C=C[C@@]1(C)CC(=O)[C@]2(O)[C@@]3(C)[C@@H](OC(C)=O)CCC(C)(C)[C@@H]3[C@H](OC(C)=O)[C@H](OC(C)=O)[C@@]2(C)O1"
  GI50: "> 100 µM (inactive)"

Read the next record carefully.
# query: GI50 of entry `Nc1nc(-c2ccccc2)nc2c1[n+]([O-])c1ccccc1[n+]2[O-]`
> 100 µM (inactive)

---

test system: RPMI-8226; assay: NCI tumour cell line growth inhibition, 48 h
Active and inactive are the calls of the source. Rule as the data show it: active = GI50 up to about 1.1 µM and inactive = higher.
Select the matching outcome among True for active, False for inactive

Example results:
- Molecule: "CC(=O)OC1OC(c2ccoc2)C[C@@]12C1CCC3O[C@]3(C)[C@]1(C)C[C@H](OC(C)=O)[C@H]2C (some centres undefined)"
  Assigned category: "False"
- Molecule: "C[C@H]1C/C=C/[C@H]2[C@@H]3O[C@]3(C)[C@@H](C)[C@H]3[C@H](Cc4ccccc4)NC(=O)[C@]32OC(=O)O/C=C/[C@@](C)(O)C1=O"
  Assigned category: "True"
- Molecule: "COc1ccc(CCNCCCC2c3ccccc3-c3ccccc32)cc1OC"
  Assigned category: "False"
- Molecule: "C=C1C(=O)C2=C[C@H]1C[C@H](O)C(=O)[C@]1(C)CCCC(C)(C)[C@H]1C[C@H]2O"
  Assigned category: "True"
- Molecule: "C=Cc1c(C)c(OC)cc2c1Oc1ccc(OC)c(C)c1CC2"
  Assigned category: "False"
- Molecule: "O=C1c2ccccc2CN1c1ccc(OCCN2CCCCC2)cc1"
  Assigned category: "False"

Field: outcome | Entry: `CCC(=O)N/N=C(\C=C\c1cccc(O)c1)c1sc(Nc2ccc(C)cc2[N+](=O)[O-])nc1C`
False

Can you look up the reported call for C=CCOc1ccccc1C1(O)c2ccccc2C2=NCCCN21 (centres undefined) for me?
False

Entry `Cc1cc2nc3[nH]nc(N)c3nc2cc1C` : call = ?
False

---

# GI50 listing for each entry below
system: NCI-H226; assay: NCI tumour cell line growth inhibition, 48 h
Calls of active or inactive are those of the source. Rule as the data show it: active = GI50 up to about 1.1 µM and inactive = higher.

Request the reported GI50 associated with `CCC(=O)Nc1ccc(N2C(=O)/C(=C/c3ccc(O)c(OC)c3)N=C2c2ccccc2)cc1`
19.5 µM (inactive)

If you can, please state the reported GI50 value of `Oc1cc(C2OCCCO2)cc(O)c1O` .
> 100 µM (inactive)

Sample CCOc1ccc(NC(=O)CC2SC(Nc3ccc(C)cc3C)=NC2=O)cc1 (stereo unspecified) — what was its GI50?
84.3 µM (inactive)

Would you kindly share the measured GI50 for Cc1cccc(NC(=O)C(=O)C(C(=O)c2ccc3ccccc3c2)C2OC(=O)c3ccccc32)c1C (stereo unspecified) ?
2.39 µM (inactive)

For the molecule shown here, [O-][S+](Nc1ccccc1)c1ccc(N2CCOCC2)cc1 (stereo unspecified) , give the reported GI50.
> 100 µM (inactive)

Returns the measured GI50 for the input molecule. Input: COc1ccc(OC)c2c3c(ccc12)C(c1ccccc1)OC3=O (stereo unspecified)
> 100 µM (inactive)
